Target: T1, human RSPO3 (recombinant, R&D Systems) (human, UniProt Q9BXY4 22-272)
T1 sequence: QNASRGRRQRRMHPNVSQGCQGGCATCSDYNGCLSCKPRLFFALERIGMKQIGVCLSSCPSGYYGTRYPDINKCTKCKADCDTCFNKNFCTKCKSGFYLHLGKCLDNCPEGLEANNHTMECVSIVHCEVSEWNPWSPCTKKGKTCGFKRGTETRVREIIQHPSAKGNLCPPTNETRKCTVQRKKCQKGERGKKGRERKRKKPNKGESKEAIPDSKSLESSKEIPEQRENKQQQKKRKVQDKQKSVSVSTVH
Assay: SPR (Biacore 2000), antibody captured by goat anti-human IgG on CM5 chip, human RSPO3 injected 300-37.5 nM
measured_metric: pKd
Remember the convention: pKd equals -log10 of concentration in molar.

[
  {
    "binder": "131R003CDR3 variant (antibody, human IgG2, kappa, V domains shown, also called 131R003 CDR3 variant (IgG2); 131R003 Heavy chain - Variant 1) VH: QVQLKQSGPELVKPGASVKISCKASGYTFTDYSIHWVKQNHGKSLDWIGYIYPSNGDSGYNQKFKNRATLTVDTSYSTAYLEVRRLTFEDSAVYYCATYFANNFDYWGQGTTLTVSS VL: DIVLTQSPASLAVSLGQRATISCKASQSVDYDGDSYMNWYQQKPGQPPKLLIYAASNLESGIPARFSGSGSGTDFTLNIHPVEEEDAATYYCQQSNEDPLTFGAGTKLELKR",
    "pKd": 8.77
  },
  {
    "binder": "anti-RSPO3 antibody 131R003 (antibody, human IgG2, kappa, V domains shown, Same light chain as 131R002; also called parental 131R003; 131R003 (IgG2)) VH: QVQLKQSGPELVKPGASVKISCKASGYTFTDYSIHWVKQNHGKSLDWIGYIYPSNGDSGYNQKFKNRATLTVDTSYSTAYLEVRRLTFEDSAVYYCATYFANYFDYWGQGTTLTVSS VL: DIVLTQSPASLAVSLGQRATISCKASQSVDYDGDSYMNWYQQKPGQPPKLLIYAASNLESGIPARFSGSGSGTDFTLNIHPVEEEDAATYYCQQSNEDPLTFGAGTKLELKR",
    "pKd": 8.72
  },
  {
    "binder": "humanized anti-RSPO3 antibody h131R011 (antibody, human IgG2, kappa, V domains shown, IgG2; also called h131R011 (IgG2)) VH: QVQLVQSGAEVKKPGASVKVSCKASGYTFTDYSIHWVRQAPGQGLEWIGYIYPSNGDSGYNQKFKNRVTMTRDTSTSTAYMELSRLRSEDTAVYYCATYFANNFDYWGQGTTLTVSS VL: DIQMTQSPSSLSASVGDRVTITCKASQSVDYDGDSYMNWYQQKPGKAPKLLIYAASNLESGVPSRFSGSGSGTDFTLTISPVQAEDFATYYCQQSNEDPLTFGAGTKLELKR",
    "pKd": 9.16
  }
]

Next:
binder anti-RSPO3 antibody 131R002 (antibody, human IgG2, kappa, V domains shown, Same light chain as 131R003; also called 131R002 (IgG2)) VH: QVQLQESGPELVKPGASVKISCKASGYTFTDYSIHWVKQNHGKSLDWIGYIYPSNGDSGYNQKFKNRATLTVDTSSSTAYLEVRRLTFEDSAVYYCATYFANYFDYWGQGTTLTVSS VL: DIVLTQSPASLAVSLGQRATISCKASQSVDYDGDSYMNWYQQKPGQPPKLLIYAASNLESGIPARFSGSGSGTDFTLNIHPVEEEDAATYYCQQSNEDPLTFGAGTKLELKR , pKd observed: 8.89
